B1: Steroid hormone receptor ERR2, residues 100 to 176; numbered along this chain, O95718 (parent)
chain: KRLCLVCGDIASGYHYGVASCEACKAFFKRTIQGNIEYSCPATNECEITKRRRKSCQACRFMKCLKVGMLKEGVRLD

variants of: B1; experiment: abundance fitness (aPCA) (normalised: wild type 0, dead -1); higher = more abundant; growth selection in yeast, the domain comes from the species named; conditions: Homo sapiens
outcome_measure: abundance fitness

- mutant_id: "M62V"
  val: -0.006
- mutant_id: "I48R"
  val: -0.518
- mutant_id: "Q33G"
  val: -0.165
- mutant_id: "M62L"
  val: -0.135
- mutant_id: "A26Q"
  val: 0.051
